B1: Hairpin Ribozyme (parent)
chain: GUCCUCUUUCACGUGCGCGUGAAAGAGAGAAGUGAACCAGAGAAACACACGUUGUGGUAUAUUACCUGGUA

# Variants of: B1
# ASSAY_METHOD_TEXT: self-cleavage, relative activity (ratio to wild type); higher = more cleavage; co-transcriptional
ENDPOINT: self-cleavage
Please give the numeric answer without any surrounding text.

**Q:** Please give the measured self-cleavage for this variant: U7G G69U
**A:** 0.166

**Q:** Would you kindly share the measured self-cleavage for U53G G68U ?
**A:** 0.187

**Q:** What value of self-cleavage has been recorded for this entry: G13A U53G
**A:** 0.597

**Q:** Please report the recorded self-cleavage for A26C U33A .
**A:** 0.23

**Q:** For the variant shown here, A24G G32A , give the reported self-cleavage.
**A:** 0.14

**Q:** Sample G56U U67G — what was its self-cleavage?
**A:** 0.12

**Q:** Would you kindly share the measured self-cleavage for A35U C46A ?
**A:** 0.16

**Q:** For U7A A71U , what is its reported self-cleavage?
**A:** 0.814

**Q:** GET /values?readout=self-cleavage&item= U52A A61G
**A:** 0.22

**Q:** Can you share its self-cleavage? I mean this variant: C4U U60A
**A:** 0.199

**Q:** Fill blank: measured self-cleavage of the variant U7G G25U is ____.
**A:** 0.17

**Q:** Fill in the blank: the reported self-cleavage of C18U G27C is ____.
**A:** 0.228

**Q:** Any idea what its self-cleavage is? The variant is C12G A22C
**A:** 0.518

**Q:** Which measured self-cleavage value corresponds to A31U U63G ?
**A:** 0.0484

**Q:** Need self-cleavage of C4U C6U , thanks.
**A:** 0.192

**Q:** Which self-cleavage value is on record for U55C U58A ?
**A:** 0.257

**Q:** Item U14G A24G has what recorded self-cleavage?
**A:** 0.747

**Q:** Please give the measured self-cleavage for this variant: A49G
**A:** 0.57

**Q:** Item G32C G68C has what recorded self-cleavage?
**A:** 0.112

**Q:** Which self-cleavage value belongs to A36G U70C ?
**A:** 1.35

**Q:** What value of measured self-cleavage is listed for G13A G17A ?
**A:** 0.747

**Q:** Requested field: self-cleavage. Item: U2C G21U
**A:** 0.185

**Q:** Quick check: self-cleavage of G57U ?
**A:** 0.273

**Q:** # lookup: self-cleavage of A22G C46G
**A:** 0.208

**Q:** For A26C G32A , what is its reported self-cleavage?
**A:** 0.0538

**Q:** Look up self-cleavage for this variant: C6G A23U
**A:** 0.344

**Q:** Reported self-cleavage, variant U9G C66G : ____
**A:** 0.172

**Q:** Reported self-cleavage for A11C U60A : what is it?
**A:** 0.716

**Q:** For the variant U9C A28U , what self-cleavage is on record?
**A:** 0.571

**Q:** What value of self-cleavage has been reported for the following variant? U8A U55G
**A:** 0.268

**Q:** So what does the record say about self-cleavage for A59C G69C ?
**A:** 0.216

**Q:** Which value of self-cleavage has been reported for A11G G40U in the records?
**A:** 0.149

**Q:** Form field: reported self-cleavage of C16G C50A
**A:** 0.198

**Q:** Reported self-cleavage, variant C3G A23C : ____
**A:** 0.194

**Q:** Which self-cleavage is reported for this variant? U14A U53C
**A:** 1.07

**Q:** Could you share which self-cleavage value was measured for U20A C65G ?
**A:** 0.182

**Q:** Given U7A A30C , state its recorded self-cleavage.
**A:** 0.121

**Q:** Fill in: self-cleavage of A36G C65G is ___
**A:** 0.138

**Q:** Which self-cleavage value belongs to G40C A47C ?
**A:** 0.142

**Q:** Given the entry U2G G34C , report its measured self-cleavage.
**A:** 0.736

**Q:** I'd like to know its self-cleavage. The variant in question is U63G A64C
**A:** 0.191

**Q:** Value lookup for self-cleavage; key = G32A A44U
**A:** 0.152

**Q:** Returns the measured self-cleavage for the input variant. Input: A36C G54C
**A:** 0.327

**Q:** What self-cleavage value was documented for this variant, U7G C18U ?
**A:** 1.07

**Q:** What does the record list as self-cleavage for C37G G54A ?
**A:** 0.173

**Q:** What does the record list as self-cleavage for C4G U9A ?
**A:** 0.162

Every entry's value here was drawn from the RNAGym collection of RNA variant scans (doi:10.7554/elife.80360).
